Assign AUC of viability dose-response curve to each entry below.
# Tested on: NOMO1
# PROTOCOL SUMMARY: AUC of viability dose-response curve (% viability x log10 dose units); higher = less sensitive
# EXPERIMENTAL CONDITIONS: HPLM + 10% dialyzed FBS; 48 h
Just the number, please.

Item under review: Cc1ccc([S+](=O)([O-])Nc2nc3ccccc3nc2Nc2ccc3nsnc3c2)cc1 . Reported AUC of viability dose-response curve?
361

I would be grateful if you could share the reported AUC of viability dose-response curve for CN1CCC[C@@H]1CCO[C@](C)(c1ccccc1)c1ccc(Cl)cc1 .
466

Fill in: AUC of viability dose-response curve of Cc1cc2c(cc1C1(c3ccc(C(=O)O)cn3)CC1)C(C)(C)CCC2(C)C is ___
371

What AUC of viability dose-response curve value was documented for this compound, CN(C)CC[C@H](c1ccc(Cl)cc1)c1ccccn1 ?
378

Give its AUC of viability dose-response curve value. Item: CCCCCCCCCC(=O)N[C@@H](Cc1c[nH]c2ccccc12)C(=O)N[C@H](CC(N)=O)C(=O)N[C@@H](CC(=O)O)C(=O)N[C@@H]1C(=O)NCC(=O)N[C@@H](CCCN)C(=O)N[C@@H](CC(=O)O)C(=O)N[C@H](C)C(=O)N[C@@H](CC(=O)O)C(=O)NCC(=O)N[C@H](CO)C(=O)N[C@@H]([C@@H](C)CC(=O)O)C(=O)N[C@@H](CC(=O)c2ccccc2N)C(=O)O[C@@H]1C
459

---

# Test system: SEM cells
# PROTOCOL SUMMARY: cell viability relative to DMSO control; higher = less cytotoxic
# EXPERIMENTAL CONDITIONS: HPLM + 10% dialyzed FBS; 48 h; 0.00234 µM
TEST READOUT: cell viability (%)
// note: answer is a bare numeric in %

# value lookup — system SEM cells, readout cell viability, item O=C(c1ccc(F)c(F)c1Nc1ccc(I)cc1F)N1CC(O)([C@@H]2CCCCN2)C1
92.2

What is its cell viability for SEM cells? Entry: O=C(Nc1ncc(-c2cc(C(F)F)nn2-c2c(Cl)cccc2Cl)s1)C1CC1
113

Which cell viability is reported with SEM cells for this entry: CC1(N2CCC(n3c([C@@H]4CCCNC4)nc4ccccc43)CC2)CCCCCCC1 ?
88.6

API: value(readout=cell viability, system=SEM cells) for record CC[C@@]1(O)C(=O)OC\C2=C1\C=C\3N(CC4=C3N=C5C=CC=CC5=C4)C2=O
116

Identify the measured cell viability of CCN(C(=O)C/1=C(O)/C2=C(C=CC=C2Cl)N(C)C1=O)C3=CC=CC=C3 for SEM cells.
92.1

---

Record form. Attribute: AUC of viability dose-response curve. Fill in for each entry.
# Tested on: NOMO1
# PROTOCOL SUMMARY: AUC of viability dose-response curve (% viability x log10 dose units); higher = less sensitive
# EXPERIMENTAL CONDITIONS: RPMI 5 mM glucose + 10% dialyzed FBS; 48 h
Enter a number only.

Form field - read-out: AUC of viability dose-response curve; system: NOMO1; submitted item: CN1CCCC(CC1)N2\N=C(CC3=CC=C(Cl)C=C3)/C4=C(C=CC=C4)C2=O (stereo not given)
461

Under NOMO1: AUC of viability dose-response curve value of O=C(CCN1CCN(C(=O)OCc2cc(Cl)cc(Cl)c2)CC1)c1ccc2[nH]c(=O)oc2c1 ?
448

Item CO/C1=C/C(C)=C\[C@@H](C)[C@@H](O)[C@@H](C)C/C(C)=C\C=C/[C@H](OC)[C@@H]([C@@H](C)[C@@H](O)[C@H](C)[C@@]2(O)C[C@@H](O)[C@H](C)[C@@H](C(C)C)O2)OC1=O with NOMO1 - AUC of viability dose-response curve?
218

Lab request: please report AUC of viability dose-response curve under test system NOMO1 for Cc1cc(C(=O)N2CCN(c3cccc(Cl)c3)CC2)n(-c2ccccc2)n1
375

API: value(readout=AUC of viability dose-response curve, system=NOMO1) for record CC(C)n1cnc2c(NCCCCCCNC(=O)OC(C)(C)C)nc(NCCO)nc21
469
